Value source: patent US8952024B2

test system: velvetleaf (Abutilon theophrasti); experiment: Test A pre-/postemergence plant response; format: in vivo; details: Preemergence, 500 g ai/ha; visual injury, 0 to 100 scale (0 no effect, 100 complete control), approx. ten days
Collected Plant response rating, Velvetleaf values appear next to each entry.
Just the number, please.

Some molecules with known Plant response rating, Velvetleaf results, for comparison:
CCCn1c(-c2ccc(OC)cc2)ncc(C(=O)C2=C(O)CCCC2=O)c1=O [Compound 112]
70
Cc1cccc(-n2c(-c3ccccc3)ncc(C(=O)C3=C(O)CCCC3=O)c2=O)c1C [Compound 27]
100

The value of Plant response rating, Velvetleaf measured for the molecule O=C1CCCC(O)=C1C(=O)c1cnc(C2CC2)n(-c2ccccc2)c1=O [Compound 87] turned out to be 100

----------
As shown below, each of these compounds has a reported Plant response rating, Nightshade value.
system: nightshade (eastern black nightshade, Solanum ptycanthum); assay: Test B pre-/postemergence plant response; format: in vivo; details: Preemergence, 31 g ai/ha; scale 0 to 100 (0 no effect, 100 complete control)

O=C1CCCC([O-])=C1C(=O)c1cnc(-c2ccccc2)n(-c2ccccc2)c1=O.[K+]
85

Plant response rating, Nightshade on nightshade (eastern black nightshade, Solanum ptycanthum) for "CCc1cccc(-n2c(-c3ccccc3)ncc(C(=O)C3=C(O)CCCC3=O)c2=O)c1" is 65

I looked up "O=C1CCCC(O)=C1C(=O)c1cnc(-c2cccc(Cl)c2)n(-c2ccccc2)c1=O" and its Plant response rating, Nightshade for nightshade (eastern black nightshade, Solanum ptycanthum) was 55

Summary: "Cc1ccc(F)c(-n2c(-c3ccccc3)ncc(C(=O)C3=C(O)CCCC3=O)c2=O)c1" , nightshade (eastern black nightshade, Solanum ptycanthum), Plant response rating, Nightshade = 98

----------
# Plant response rating, Sedge, Umbrella per entry
tested on: umbrella sedge (Cyperus difformis); experiment: Test B flooded paddy test; type: in vivo; settings: Flood (flooded paddy test), 62 g ai/ha; scale of 0 to 100 where 0 is no effect and 100 is complete control; 13 to 15 days
Output spec: single numeric token, no unit.

O=C1CCCC(O)=C1C(=O)c1cnc(-c2ccccc2)n(CCC(F)(F)F)c1=O
40
COCCn1c(-c2cccs2)ncc(C(=O)C2=C(O)CCCC2=O)c1=O
40
CCCn1c(C2CC2)ncc(C(=O)C2=C(O)CCCC2=O)c1=O
0
O=C1CCCC(O)=C1C(=O)c1cnc(C2CCC2)n(-c2ccccc2)c1=O
30
O=C(C1=C(O)C2CCC(C2)C1=O)c1cnc(-c2ccccc2)n(CC2CCCO2)c1=O (centres unmarked)
65
COc1ccc(-n2c(-c3cccc(C)c3)ncc(C(=O)C3=C(O)CCCC3=O)c2=O)cc1
85
CCCc1ncc(C(=O)C2=C(O)CCCC2=O)c(=O)n1-c1cccc(C)c1
0
C#Cc1ccc(-c2ncc(C(=O)C3=C(O)C4CCC(C4)C3=O)c(=O)n2C2CCCCC2)cc1 (centres unmarked)
50
O=C1CCCC(O)=C1C(=O)c1cnc(C2CCCC2)n(-c2ccccc2)c1=O
65
Cc1ccc(-n2c(-c3cccc(C)c3)ncc(C(=O)C3=C(O)CCCC3=O)c2=O)cc1
0

Reported Plant response rating, Sedge, Umbrella for "CCCCn1c(CCC)ncc(C(=O)C2=C(O)CCCC2=O)c1=O" was 0

Reported Plant response rating, Sedge, Umbrella for "CCCc1ncc(C(=O)C2=C(O)CCCC2=O)c(=O)n1-c1ccccc1" was 40

Per the record, "O=C1CCCC(O)=C1C(=O)c1cnc(-c2ccco2)n(C2CCCCC2)c1=O" has Plant response rating, Sedge, Umbrella of 80

So for "CC(C)Cc1ncc(C(=O)C2=C(O)CCCC2=O)c(=O)n1-c1ccccc1" , the logged Plant response rating, Sedge, Umbrella turned out to be 0

----------
test system: corn (Zea mays); assay: Test A pre-/postemergence plant response; type: in vivo; settings: Postemergence, 500 g ai/ha; visual injury, 0 to 100 scale (0 no effect, 100 complete control), approx. ten days
Mark each entry Yes if its Corn plant response rating sits below 30, and No for all others.

Cc1cccc(-c2ncc(C(=O)C3=C(O)CCCC3=O)c(=O)n2-c2cc(F)ccc2C)c1
No
CCn1c(-c2cccc(F)c2)ncc(C(=O)C2=C(O)C3CCC(C3)C2=O)c1=O (centres unmarked)
No
CCCn1c(-c2ccc3ccccc3c2)ncc(C(=O)C2=C(O)C3CCC(C3)C2=O)c1=O (centres unmarked)
Yes

Then there is this compound:
For "O=C1CCCC(O)=C1C(=O)c1cnc(-c2ccco2)n(C2CCCCC2)c1=O" , is the recorded Corn plant response rating below the cut-off of 30? Yes

----------
tested on: mallow (common mallow, Malva sylvestris); test: Test D pre-/postemergence plant response; assay type: in vivo; conditions: Preemergence, 31 g ai/ha; scale 0 to 100 (0 no effect, 100 complete control)
Known Plant response rating, Mallow of a selection of molecules

O=C1CCCC(O)=C1C(=O)c1cnc(-c2cccs2)n(-c2ccccc2)c1=O
0
Cc1ccc(F)c(-n2c(-c3ccccc3)ncc(C(=O)C3=C(O)CCCC3=O)c2=O)c1
0

The recorded Plant response rating, Mallow for "Cc1c(F)cccc1-n1c(-c2ccccc2)ncc(C(=O)C2=C(O)CCCC2=O)c1=O" is 0

----------
system: morningglory (Ipomoea spp.); test: Test A pre-/postemergence plant response; format: in vivo; conditions: Postemergence, 500 g ai/ha; 0 to 100 scale, 0 = no effect, 100 = complete control; approx. ten days
In this section we review reported Plant response rating, Morningglory values for a set of compounds.
Number, no unit, nothing else.

Example compounds with recorded Plant response rating, Morningglory:
O=C1CCCC(O)=C1C(=O)c1cnc(-c2ccsc2)n(C2CCCCC2)c1=O [Compound 99]
100
Cc1ccc(-n2c(-c3ccccc3)ncc(C(=O)C3=C(O)CCCC3=O)c2=O)c(Cl)c1 [Compound 41]
70

Per the record, CC(C)Cc1ncc(C(=O)C2=C(O)CCCC2=O)c(=O)n1-c1ccccc1 [Compound 68] has Plant response rating, Morningglory of 90

----------
test system: morningglory (Ipomoea coccinea); experiment: Test B pre-/postemergence plant response; type: in vivo; conditions: 31 g ai/ha, postemergence; scale 0 to 100, 0 is no effect, 100 is complete control
parameter: Plant response rating, Morningglory

// recorded Plant response rating, Morningglory for Cc1cccc(-n2c(-c3ccccc3)ncc(C(=O)C3=C(O)CCCC3=O)c2=O)c1F [Compound 58] : 65

Briefly, Plant response rating, Morningglory measured for CCCCCCn1c(-c2ccccc2)ncc(C(=O)C2=C(O)CCCC2=O)c1=O [Compound 94] : 55

Plant response rating, Morningglory reading for O=C1CCCC(O)=C1C(=O)c1cnc(-c2ccsc2)n(C2CCCCC2)c1=O [Compound 99] : 100

----------
system: large crabgrass (Digitaria sanguinalis); test: Test B pre-/postemergence plant response; assay type: in vivo; conditions: Postemergence, 125 g ai/ha; scale 0 to 100 (0 no effect, 100 complete control)
parameter: Plant response rating, Crabgrass, Large
Returns: the value as a bare number; no unit string appended.

The cases that follow already have their Plant response rating, Crabgrass, Large on record.
COCCn1c(-c2cccs2)ncc(C(=O)C2=C(O)CCCC2=O)c1=O [Compound 108]
75
CCn1c(-c2cc(F)cc(F)c2)ncc(C(=O)C2=C(O)CCCC2=O)c1=O [Compound 122]
85

Attention now shifts to the item below.
Plant response rating, Crabgrass, Large for CCc1cccc(-n2c(-c3ccccc3)ncc(C(=O)C3=C(O)CCCC3=O)c2=O)c1 [Compound 220] is 85

----------
test system: downy bromegrass (Bromus tectorum); assay: Test B pre-/postemergence plant response; type: in vivo; conditions: Postemergence, 125 g ai/ha; visual rating after 13 to 15 days, scale 0 (no effect) to 100 (complete control)
parameter: Plant response rating, Bromegrass, Downy
Response field accepts a number only; no unit should be typed.

O=C1CCCC(O)=C1C(=O)c1cnc(C2CCCC2)n(-c2ccccc2)c1=O
20
Cc1cccc(-n2c(-c3ccccc3)ncc(C(=O)C3=C(O)CCCC3=O)c2=O)c1C
20

In the following, a different compound is considered.
Case "CCCn1c(-c2ccccc2)ncc(C(=O)C2=C(O)CCCC2=O)c1=O" , downy bromegrass (Bromus tectorum), Plant response rating, Bromegrass, Downy recorded as 20

----------
test system: bermudagrass (Cynodon dactylon); test: Test B pre-/postemergence plant response; assay type: in vivo; details: Postemergence, 250 g ai/ha; scale 0 to 100 (0 no effect, 100 complete control)
Measured Plant response rating, Bermudagrass values are reported for all entries that follow.
Form rule: numeric answer, no unit written next to it.

CCCCCCn1c(-c2ccccc2)ncc(C(=O)C2=C(O)CCCC2=O)c1=O [Compound 94]
98

Now look at this one.
Given item O=C1CCCC(O)=C1C(=O)c1cnc(C2CCCC2)n(-c2ccccc2)c1=O [Compound 92] , the value recorded as its Plant response rating, Bermudagrass is 85

----------
Documented Ragweed plant response rating (0 to 100 scale) across a set of molecules
tested on: ragweed (common ragweed, Ambrosia elatior); assay: Test B pre-/postemergence plant response; type: in vivo; conditions: 62 g ai/ha, postemergence; 0 is no effect, 100 is complete control; 13 to 15 days
Reply with the value as a number alone.

As a guide, the following entries are already answered.
CCOCCn1c(-c2ccccc2)ncc(C(=O)C2=C(O)CCCC2=O)c1=O
80
O=C1CCCC(O)=C1C(=O)c1cnc(-c2ccsc2)n(C2CCCCC2)c1=O
80

For "COCCCn1c(-c2ccccc2)ncc(C(=O)C2=C(O)CCCC2=O)c1=O" on ragweed (common ragweed, Ambrosia elatior), measured Ragweed plant response rating (0 to 100 scale) was 80
